Assay: Clearance in rat at 1 mg/kg, iv dosed as crystalline suspension in 20%HPBCD vehicle (20% hydroxypropyl-beta-cyclodextrin/80% water)
Assay type: ADME, organism-based
Design: dose 1 mg/kg, route intravenous
Details: in vivo
observable: clearance (mL/min/kg)
Report the figure in mL/min/kg without appending any unit label.

Any idea what clearance was measured for Nc1ncnc2c(C(=O)Nc3c(Cl)ccc(NS(=O)(=O)CCCF)c3F)csc12 ?
0.19

====

Molecular target: Serine/threonine-protein kinase B-raf (Homo sapiens, UniProt P15056, V600E)
Sequence (P15056 2-766 V600E limits assumed): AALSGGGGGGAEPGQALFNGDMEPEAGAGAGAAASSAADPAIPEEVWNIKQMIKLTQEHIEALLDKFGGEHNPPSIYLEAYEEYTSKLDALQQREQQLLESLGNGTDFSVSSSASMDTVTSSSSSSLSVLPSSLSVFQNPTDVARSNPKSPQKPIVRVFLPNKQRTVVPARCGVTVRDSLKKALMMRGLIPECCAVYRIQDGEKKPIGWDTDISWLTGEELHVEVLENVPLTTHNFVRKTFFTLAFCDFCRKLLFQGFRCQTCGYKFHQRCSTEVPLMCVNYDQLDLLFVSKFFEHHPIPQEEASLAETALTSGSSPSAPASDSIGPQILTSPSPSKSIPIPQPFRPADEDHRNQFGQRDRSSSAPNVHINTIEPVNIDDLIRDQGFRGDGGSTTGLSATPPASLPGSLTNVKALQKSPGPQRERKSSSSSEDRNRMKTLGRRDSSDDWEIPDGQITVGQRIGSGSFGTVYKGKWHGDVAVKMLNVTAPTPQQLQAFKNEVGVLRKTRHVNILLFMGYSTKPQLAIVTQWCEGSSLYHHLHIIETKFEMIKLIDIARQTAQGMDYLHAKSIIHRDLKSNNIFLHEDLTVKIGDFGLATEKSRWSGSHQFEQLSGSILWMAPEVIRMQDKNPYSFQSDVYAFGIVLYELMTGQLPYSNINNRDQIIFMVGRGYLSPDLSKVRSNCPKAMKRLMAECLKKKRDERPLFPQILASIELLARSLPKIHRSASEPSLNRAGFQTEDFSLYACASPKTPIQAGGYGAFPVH
Assay: Inhibition of His6X-tagged human B-raf V600E mutant expressed in baculovirus infected insect cells coexpressing […] using [gamma33P]ATP after 60 mins by scintillation counting
pIC50: −log10 of the molar value.
Rule: pIC50 under 9 gives no (0), otherwise yes (1).

Say whether CCCS(=O)(=O)Nc1ccc(F)c(NC(=O)Nc2ncnc3[nH]ncc23)c1F shows pIC50 of 9 or more.
no (0)

Say whether Nc1ncnc2c(C(=O)Nc3c(Cl)ccc(NS(=O)(=O)CCCF)c3F)cccc12 shows pIC50 of 9 or more.
yes (1)

Say whether CCCS(=O)(=O)Nc1ccc(F)c(NC(=O)c2csc3c(N)ncnc23)c1F shows pIC50 of 9 or more.
no (0)

Say whether CCCS(=O)(=O)Nc1ccc(F)c(NC(=O)Nc2cc(NC)ncn2)c1F shows pIC50 of 9 or more.
no (0)

====

Target: Serine/threonine-protein kinase B-raf (Homo sapiens, UniProt P15056, V600E)
Assay: Inhibition of His6X-tagged human B-raf V600E mutant expressed in baculovirus infected insect cells coexpressing […] using [gamma33P]ATP after 60 mins by scintillation counting
observable: pIC50
pIC50 here: minus log base 10 of the concentration, concentration in moles per litre.

Any idea what pIC50 was measured for CCCS(=O)(=O)Nc1ccc(F)c(NC(=O)c2cccc3c(N)ncnc23)c1Cl ?
9.27

Any idea what pIC50 was measured for CCCS(=O)(=O)Nc1ccc(Cl)c(NC(=O)c2cccc3c(N)ncnc23)c1F ?
9.23

Any idea what pIC50 was measured for CCCS(=O)(=O)Nc1ccc(Cl)c(NC(=O)c2csc3c(N)ncnc23)c1F ?
9.05

Any idea what pIC50 was measured for CCCS(=O)(=O)Nc1ccc(F)c(NC(=O)c2cccc3c(N)ncnc23)c1F ?
8.74

Any idea what pIC50 was measured for CCCS(=O)(=O)Nc1ccc(F)c(NC(=O)c2csc3c(N)ncnc23)c1Cl ?
8.96

The reported numbers originate from ChEMBL document CHEMBL2046386.
